src = patent US20210169892A1

Tested on: HEK293T cells carrying the ATF4 luciferase reporter
TEST_SUMMARY: ATF4-Luc assay (in vitro model of vanishing white matter disease)
Assay type: cell-based
SETTINGS: Homo sapiens, HEK-293T; HEK293T cells with ATF4 luciferase reporter, 1 μg/mL tunicamycin, 7 hours, One Glo luminescence
Procedure: In order to test exemplary compounds of the invention in a cellular context, a stable VWMD cell line was first constructed. […] HEK293T cells carrying the ATF4 luciferase reporter were plated on polylysine coated 384-well plates (Greiner Bio-one) at 30,000 cells per well. […] Luminescence was measured using One Glo (Promega) as specified by the manufacturer. […]
Please provide measured EC50 for the entries that follow.

Reference set (3 entries):
{"COMPOUND": "COC(=O)CNC1CC(C(=O)NC23CC(NC(=O)COc4ccc(Cl)c(F)c4)(C2)C3)Oc2ccc(Cl)cc21 (stereo not shown)", "RESULT": "10 to 50 nM"}
{"COMPOUND": "O=C(COc1ccc(Cl)c(F)c1)NC12CC(NC(=O)C3COc4ccccc4O3)(C1)C2 (stereo not shown)", "RESULT": "10 to 50 nM"}
{"COMPOUND": "O=C(COc1ccc(Cl)c(F)c1)NC12CCC(NC(=O)C3CC(O)c4cc(Cl)ccc4O3)(CC1)C[C@@H]2O (stereo partly shown)", "RESULT": "< 10 nM"}

Next up:
Incoming: // returns reported EC50 for input CSCCC(=O)N1CC(C(=O)NC23CC(NC(=O)COc4ccc(Cl)c(F)c4)(C2)C3)Oc2ccc(Cl)cc21 (stereo not shown)
Outgoing: 50 to 250 nM
